# Tested On: Muscarinic acetylcholine receptor M2 (Homo sapiens)
# Sequence (P08172 whole entry): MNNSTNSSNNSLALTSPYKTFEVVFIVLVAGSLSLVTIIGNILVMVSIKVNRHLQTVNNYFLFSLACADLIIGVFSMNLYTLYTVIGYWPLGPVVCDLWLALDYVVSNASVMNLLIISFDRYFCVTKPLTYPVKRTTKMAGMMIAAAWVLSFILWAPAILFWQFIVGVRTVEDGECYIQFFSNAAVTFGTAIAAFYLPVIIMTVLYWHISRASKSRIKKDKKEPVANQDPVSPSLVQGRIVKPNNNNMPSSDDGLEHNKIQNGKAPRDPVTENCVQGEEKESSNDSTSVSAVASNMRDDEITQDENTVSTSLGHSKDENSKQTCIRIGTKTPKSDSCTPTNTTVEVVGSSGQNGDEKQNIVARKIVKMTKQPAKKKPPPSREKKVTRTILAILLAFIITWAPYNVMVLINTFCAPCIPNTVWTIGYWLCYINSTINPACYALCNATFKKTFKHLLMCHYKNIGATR
# Experiment: Inhibition of [3H]NMS dissociation from muscarinic M2 receptor in hepes buffer
Items are presented alongside their recorded pEC50.
On this scale, pEC50 is minus log10 of a concentration expressed in M (mol/L).

A selection of reference data follows.
Mol: C=CC[N+](C)(C)Cc1c2n(c3ccccc13)Cc1c(C[N+](C)(C)CC=C)c3ccccc3n1C2
pEC50: 5.64

Mol: CN(C)Cc1c2n(c3ccccc13)Cc1c(CN(C)C)c3ccccc3n1C2
pEC50: 4.78

Field: next compound
Looking up `C[N+](C)(C)Cc1c2n(c3ccccc13)Cc1c(C[N+](C)(C)C)c3ccccc3n1C2` , I found its pEC50 recorded as 4.95
